Items are presented alongside their recorded SKW3 WT vs KO, anti-hKappa-FITC (ratio).
- TARGET SYSTEM: T1, human CD4 on cells (SKW3 cells; human PBMCs) (human, UniProt P01730 26-458)
- T1 construct: whole, on cells; The SKW3 CD4 knockout cells served as the negative cell line; also called hCD4
- MEASUREMENT DESCRIPTION: FACS primary screen, non-clonal supernatant; SKW3 vs SKW3 CD4 KO cells, anti-human Kappa FITC detection
Your answer is read as ratio, so omit the unit and give the number.

Below: 3 binders and their reported SKW3 WT vs KO, anti-hKappa-FITC (ratio).
75110_10N21A (antibody, V domains shown, Tested as non-clonal hybridoma supernatant from AlivaMab Mouse Kappa mice, detected with anti-mouse Fc and anti-human Kappa) VH: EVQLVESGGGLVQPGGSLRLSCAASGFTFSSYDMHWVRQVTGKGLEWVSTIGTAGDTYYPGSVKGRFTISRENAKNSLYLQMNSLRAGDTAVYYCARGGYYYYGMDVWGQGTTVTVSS VL: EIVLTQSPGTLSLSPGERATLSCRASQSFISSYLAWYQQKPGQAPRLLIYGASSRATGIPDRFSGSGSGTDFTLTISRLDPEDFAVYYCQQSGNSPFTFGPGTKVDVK : 1.4
75110_01H18A (antibody, V domains shown, Tested as non-clonal hybridoma supernatant from AlivaMab Mouse Kappa mice, detected with anti-mouse Fc and anti-human Kappa) VH: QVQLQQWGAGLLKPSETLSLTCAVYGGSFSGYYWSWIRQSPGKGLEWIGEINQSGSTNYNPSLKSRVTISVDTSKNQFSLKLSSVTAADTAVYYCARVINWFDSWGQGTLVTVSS VL: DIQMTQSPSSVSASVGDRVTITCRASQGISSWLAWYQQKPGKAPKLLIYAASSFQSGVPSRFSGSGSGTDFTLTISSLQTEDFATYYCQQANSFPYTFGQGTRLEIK : 1.6
75110_08H11A (antibody, V domains shown, Tested as non-clonal hybridoma supernatant from AlivaMab Mouse Kappa mice, detected with anti-mouse Fc and anti-human Kappa) VH: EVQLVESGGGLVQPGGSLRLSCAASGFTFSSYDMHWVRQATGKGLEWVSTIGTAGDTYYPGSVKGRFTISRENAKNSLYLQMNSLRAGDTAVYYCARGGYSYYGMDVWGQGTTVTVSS VL: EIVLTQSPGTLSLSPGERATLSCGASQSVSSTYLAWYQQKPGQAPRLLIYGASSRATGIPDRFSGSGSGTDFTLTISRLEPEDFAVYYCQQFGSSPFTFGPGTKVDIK : 1.6

We next turn to a different binder, shown below.
For 75110_08H06A (antibody, V domains shown, Tested as non-clonal hybridoma supernatant from AlivaMab Mouse Kappa mice, detected with anti-mouse Fc and anti-human Kappa) VH: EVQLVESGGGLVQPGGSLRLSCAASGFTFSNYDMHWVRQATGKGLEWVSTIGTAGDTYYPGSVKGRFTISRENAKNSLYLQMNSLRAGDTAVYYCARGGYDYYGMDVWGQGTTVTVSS VL: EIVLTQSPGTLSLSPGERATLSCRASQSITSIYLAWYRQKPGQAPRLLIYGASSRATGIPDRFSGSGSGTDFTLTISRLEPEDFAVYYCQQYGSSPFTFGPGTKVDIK the binder record lists SKW3 WT vs KO, anti-hKappa-FITC (ratio) as 1.6
